Catalogue of ratio of amounts bound vs CE115HA000 values
# System tested: T1, CD3ε homodimer protein (human, UniProt P07766 23-126, limits assumed, sulfo-tag or biotin label in some ECL assays)
# T1 construct: also called human CD3ε homodimer protein; CD3 (CD3ε)
# T1 sequence (P07766 23-126 limits assumed): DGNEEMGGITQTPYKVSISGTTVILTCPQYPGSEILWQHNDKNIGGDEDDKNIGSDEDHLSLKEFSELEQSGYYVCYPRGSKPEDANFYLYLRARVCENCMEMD
# Measurement protocol: SPR, CD3ε homodimer on chip;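 also: biacore SPR with antibody variants flowed as analyte over amine-coupled CD3ε homodimer on a CM chip, bound amount of each single-residue H chain variant over that of parent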

Consider the worked cases shown below.
# Binder, Observed result
rows = [
    ("CE115HA000 K52N (antibody, name in Kabat numbering, V domains shown) VH: QVQLVESGGGVVQPGRSLRLSCAASGFTFSNAWMHWVRQAPGKGLEWVAQINAKSNNYATYYAESVKGRFTISRDDSKNSLYLQMNSLKTEDTAVYYCRYVHYGAYYGVDAWGQGTTVTVSS VL: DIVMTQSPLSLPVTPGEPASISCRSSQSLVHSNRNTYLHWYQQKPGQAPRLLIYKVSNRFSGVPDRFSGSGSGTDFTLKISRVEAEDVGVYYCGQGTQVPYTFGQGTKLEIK", 0.34),
    ("CE115HA000 H35R (antibody, name in Kabat numbering, V domains shown) VH: QVQLVESGGGVVQPGRSLRLSCAASGFTFSNAWMRWVRQAPGKGLEWVAQIKAKSNNYATYYAESVKGRFTISRDDSKNSLYLQMNSLKTEDTAVYYCRYVHYGAYYGVDAWGQGTTVTVSS VL: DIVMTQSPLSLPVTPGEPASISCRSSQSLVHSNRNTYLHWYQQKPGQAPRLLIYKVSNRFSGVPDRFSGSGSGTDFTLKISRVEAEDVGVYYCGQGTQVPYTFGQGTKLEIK", 0.14),
]

# input for lookup
[Q] // returns reported ratio of amounts bound vs CE115HA000 for input CE115HA000 Y59E (antibody, name in Kabat numbering, V domains shown) VH: QVQLVESGGGVVQPGRSLRLSCAASGFTFSNAWMHWVRQAPGKGLEWVAQIKAKSNNYATYEAESVKGRFTISRDDSKNSLYLQMNSLKTEDTAVYYCRYVHYGAYYGVDAWGQGTTVTVSS VL: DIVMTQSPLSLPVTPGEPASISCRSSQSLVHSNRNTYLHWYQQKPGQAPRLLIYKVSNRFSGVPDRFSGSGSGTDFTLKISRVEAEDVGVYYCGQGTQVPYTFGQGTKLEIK
[A] 0.66
